tested on: SUP-M2 cells; assay: CellTiter-Glo 2.0 cell viability assay, SUP-M2; assay type: cell-based; details: SUP-M2, 96 h, 4 days
Field: IC50. Provide a value for each of the compounds that follow.

I'd like to know its IC50. The compound in question is CCS(=O)(=O)c1ccc(CNC(=O)[C@H](CCC(N)=O)NC(=O)[C@@H]2CC[C@@H]3CCN(C(=O)CCCCc4cn([C@H](C(=O)N5C[C@H](O)C[C@H]5C(=O)N[C@@H](CN5CCOCC5)c5ccc(-c6scnc6C)cc5)C(C)(C)C)nn4)C[C@H](NC(=O)c4cc5cc(C(=O)P(=O)(O)O)ccc5[nH]4)C(=O)N32)cc1
100 to 1000 nM

I'd like to know its IC50. The compound in question is CC(=O)N1CC[C@H]2CC[C@@H](C(=O)N[C@@H](CCC(N)=O)COc3cccc(CCCc4cn([C@H](C(=O)N5C[C@H](O)C[C@H]5C(=O)N[C@@H](C)c5ccc(-c6scnc6C)cc5)C5CCCCC5)nn4)c3Cl)N2C(=O)[C@@H](NC(=O)c2cc3cc(C(=O)P(=O)(O)O)ccc3[nH]2)C1
< 10 nM

I'd like to know its IC50. The compound in question is CC(=O)N1CC[C@H]2CC[C@@H](C(=O)N[C@@H](CCC(N)=O)COc3cccc(CCCCNC(=O)C[C@H](NC(=O)[C@@H]4C[C@@H](O)CN4C(=O)[C@@H](n4cc(C5CC5)nn4)C(C)(C)C)c4ccc(-c5scnc5C)cc4)c3Cl)N2C(=O)[C@@H](NC(=O)c2cc3cc(C(=O)P(=O)(O)O)ccc3[nH]2)C1
< 10 nM

* * *

biological target: STAT3 (Homo sapiens, UniProt P40763); construct: This cell line is a clone created by using CRISPR-Cas9 to fuse HiBiT to the 3′ end of STAT3 in HeLa cells; host or cells: STAT3-HiBiT KI HeLa cell line (CRISPR-Cas9 knock-in clone); test: HiBiT assay, STAT3 degradation in STAT3-HiBiT KI HeLa cells; format: cell-based; conditions: 24 h, read-out: STAT3 Degradation (HeLa 24 h HiBit) DC50
Sequence (P40763 whole entry): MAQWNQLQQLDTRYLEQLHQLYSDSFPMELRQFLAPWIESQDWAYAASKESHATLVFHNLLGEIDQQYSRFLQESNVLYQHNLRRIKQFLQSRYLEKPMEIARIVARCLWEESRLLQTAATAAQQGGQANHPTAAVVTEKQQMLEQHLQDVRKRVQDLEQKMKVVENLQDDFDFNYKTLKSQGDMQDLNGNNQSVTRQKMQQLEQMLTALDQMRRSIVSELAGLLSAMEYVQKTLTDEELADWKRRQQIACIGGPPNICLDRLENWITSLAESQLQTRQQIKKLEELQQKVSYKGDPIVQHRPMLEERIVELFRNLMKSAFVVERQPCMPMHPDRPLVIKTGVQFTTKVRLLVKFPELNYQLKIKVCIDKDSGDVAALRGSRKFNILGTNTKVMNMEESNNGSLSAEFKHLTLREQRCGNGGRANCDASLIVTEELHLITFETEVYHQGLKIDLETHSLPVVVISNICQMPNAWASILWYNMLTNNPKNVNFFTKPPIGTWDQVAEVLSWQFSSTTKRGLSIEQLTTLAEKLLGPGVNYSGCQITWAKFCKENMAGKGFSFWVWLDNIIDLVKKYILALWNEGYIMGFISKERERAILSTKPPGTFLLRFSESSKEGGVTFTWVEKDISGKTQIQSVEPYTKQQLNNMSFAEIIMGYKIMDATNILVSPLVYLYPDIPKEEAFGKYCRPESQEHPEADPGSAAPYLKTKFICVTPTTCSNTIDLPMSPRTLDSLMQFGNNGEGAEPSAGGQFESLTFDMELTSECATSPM
Field: DC50. Provide a value for each of the molecules that follow.

I'd like to know its DC50. The molecule in question is Cc1ncsc1-c1ccc([C@H](C)NC(=O)[C@@H]2C[C@@H](O)CN2C(=O)[C@@H](n2cc(CCC(=O)N3CC[C@H]4CC[C@@H](C(=O)N[C@@H](CCC(N)=O)C(=O)NC(c5ccccc5)c5ccccc5)N4C(=O)[C@@H](NC(=O)c4cc5cc(C(=O)P(=O)(O)O)ccc5[nH]4)C3)nn2)C(C)(C)C)cc1
> 1000 nM

I'd like to know its DC50. The molecule in question is CCS(=O)(=O)c1ccc(CNC(=O)[C@H](CCC(N)=O)NC(=O)[C@@H]2CC[C@@H]3CCN(C(=O)CCCCCc4cn([C@@H](C(=O)N5C[C@@H](O)C[C@@H]5C(=O)N[C@@H](C)c5ccc(-c6scnc6C)cc5)C5CCOCC5)nn4)C[C@H](NC(=O)c4cc5cc(C(=O)P(=O)(O)O)ccc5[nH]4)C(=O)N32)cc1
< 10 nM

I'd like to know its DC50. The molecule in question is Cc1ncsc1-c1ccc([C@H](C)NC(=O)[C@@H]2C[C@@H](O)CN2C(=O)[C@@H](NC(=O)CCCCCCCCC(=O)N2CC[C@H]3CC[C@@H](C(=O)N[C@@H](CCC(N)=O)C(=O)NC(c4ccccc4)c4ccccc4)N3C(=O)[C@@H](NC(=O)c3cc4cc(C(=O)P(=O)(O)O)ccc4[nH]3)C2)C(C)(C)C)cc1
100 to 1000 nM

I'd like to know its DC50. The molecule in question is Cc1ncsc1-c1ccc([C@H](C)NC(=O)[C@@H]2C[C@@H](O)CN2C(=O)[C@@H](n2cc(CCCCCCCCC(=O)N3CC[C@H]4CC[C@@H](C(=O)N[C@@H](CCC(N)=O)C(=O)NC(c5ccccc5)c5ccccc5)N4C(=O)[C@@H](NC(=O)c4cc5cc(C(=O)P(=O)(O)O)ccc5[nH]4)C3)nn2)C(C)(C)C)cc1
> 1000 nM

I'd like to know its DC50. The molecule in question is CCS(=O)(=O)c1ccc(CNC(=O)[C@H](CCC(N)=O)NC(=O)[C@@H]2CC[C@@H]3CCN(C(=O)[C@H]4CC[C@H](c5cn([C@H](C(=O)N6C[C@H](O)C[C@H]6C(=O)N[C@@H](C)c6ccc(-c7scnc7C)cc6)C(C)(C)C)nn5)CC4)C[C@H](NC(=O)c4cc5cc(C(=O)P(=O)(O)O)ccc5[nH]4)C(=O)N32)cc1
10 to 100 nM

I'd like to know its DC50. The molecule in question is CCS(=O)(=O)c1ccc(CNC(=O)[C@H](CCC(N)=O)NC(=O)[C@@H]2CC[C@@H]3CCN(C(=O)CCCCc4cn([C@@H](C(=O)N5C[C@H](O)C[C@H]5C(=O)N[C@H](C)c5ccc(-c6scnc6C)cc5)C5CCN(C)CC5)nn4)C[C@H](NC(=O)c4cc5cc(C(=O)P(=O)(O)O)ccc5[nH]4)C(=O)N32)cc1
< 10 nM

I'd like to know its DC50. The molecule in question is CCS(=O)(=O)c1ccc(CNC(=O)[C@H](CCC(N)=O)NC(=O)[C@@H]2CC[C@@H]3CCN(C(=O)CCCCCc4cn([C@H](C(=O)N5C[C@H](O)C[C@H]5C(=O)N[C@@H](C)c5ccc(-c6scnc6C)cc5)C(C)(C)C)nn4)C[C@H](NC(=O)c4cc5cc(C(=O)P(=O)(O)O)ccc5[nH]4)C(=O)N32)cc1
< 10 nM

I'd like to know its DC50. The molecule in question is CC(=O)N1CC[C@H]2CC[C@@H](C(=O)N[C@@H](CCC(N)=O)COc3cccc(CCCc4cn([C@H](C(=O)N5C[C@H](O)C[C@H]5C(=O)N[C@@H](C)c5ccc(-c6scnc6C)cc5)C5CCN(C6CCOCC6)CC5)nn4)c3Cl)N2C(=O)[C@@H](NC(=O)c2cc3cc(C(=O)P(=O)(O)O)ccc3[nH]2)C1
100 to 1000 nM

I'd like to know its DC50. The molecule in question is Cc1ncsc1-c1ccc([C@H](C)NC(=O)[C@@H]2C[C@@H](O)CN2C(=O)[C@@H](n2cc(CCCC(=O)N3CC[C@H]4CC[C@@H](C(=O)N[C@@H](CCC(N)=O)C(=O)NCc5cccc(Cl)c5)N4C(=O)[C@@H](NC(=O)c4cc5cc(C(=O)P(=O)(O)O)ccc5[nH]4)C3)nn2)C(C)(C)C)cc1
10 to 100 nM

I'd like to know its DC50. The molecule in question is Cc1ncsc1-c1ccc([C@H](C)NC(=O)[C@@H]2C[C@@H](O)CN2C(=O)[C@@H](n2cc(CCc3cccc(OC[C@H](CCC(N)=O)NC(=O)[C@@H]4CC[C@@H]5CCN(C(=O)C(C)C)C[C@H](NC(=O)c6cc7cc(C(=O)P(=O)(O)O)ccc7[nH]6)C(=O)N54)c3Cl)nn2)C(C)(C)C)cc1
10 to 100 nM

I'd like to know its DC50. The molecule in question is Cc1ncsc1-c1ccc([C@H](C)NC(=O)[C@@H]2C[C@@H](O)CN2C(=O)[C@@H](NC(=O)CCCCCCC(=O)N2CC[C@H]3CC[C@@H](C(=O)N[C@@H](CCC(N)=O)C(=O)NC(c4ccccc4)c4ccccc4)N3C(=O)[C@@H](NC(=O)c3cc4cc(C(=O)P(=O)(O)O)ccc4[nH]3)C2)C(C)(C)C)cc1
100 to 1000 nM

I'd like to know its DC50. The molecule in question is COCCOCCOC[C@H](NC(=O)[C@@H]1C[C@@H](O)CN1C(=O)[C@@H](n1cc(CCCc2cccc(OC[C@H](CCC(N)=O)NC(=O)[C@@H]3CC[C@@H]4CCN(C(C)=O)C[C@H](NC(=O)c5cc6cc(C(=O)P(=O)(O)O)ccc6[nH]5)C(=O)N43)c2Cl)nn1)C(C)(C)C)c1ccc(-c2scnc2C)cc1 [Compound 27]
< 10 nM
